Target: human FGFR2b on cells (human) (UniProt P21802)
Sequence (P21802 other isoform, or with tags, fused parts or gaps limits assumed): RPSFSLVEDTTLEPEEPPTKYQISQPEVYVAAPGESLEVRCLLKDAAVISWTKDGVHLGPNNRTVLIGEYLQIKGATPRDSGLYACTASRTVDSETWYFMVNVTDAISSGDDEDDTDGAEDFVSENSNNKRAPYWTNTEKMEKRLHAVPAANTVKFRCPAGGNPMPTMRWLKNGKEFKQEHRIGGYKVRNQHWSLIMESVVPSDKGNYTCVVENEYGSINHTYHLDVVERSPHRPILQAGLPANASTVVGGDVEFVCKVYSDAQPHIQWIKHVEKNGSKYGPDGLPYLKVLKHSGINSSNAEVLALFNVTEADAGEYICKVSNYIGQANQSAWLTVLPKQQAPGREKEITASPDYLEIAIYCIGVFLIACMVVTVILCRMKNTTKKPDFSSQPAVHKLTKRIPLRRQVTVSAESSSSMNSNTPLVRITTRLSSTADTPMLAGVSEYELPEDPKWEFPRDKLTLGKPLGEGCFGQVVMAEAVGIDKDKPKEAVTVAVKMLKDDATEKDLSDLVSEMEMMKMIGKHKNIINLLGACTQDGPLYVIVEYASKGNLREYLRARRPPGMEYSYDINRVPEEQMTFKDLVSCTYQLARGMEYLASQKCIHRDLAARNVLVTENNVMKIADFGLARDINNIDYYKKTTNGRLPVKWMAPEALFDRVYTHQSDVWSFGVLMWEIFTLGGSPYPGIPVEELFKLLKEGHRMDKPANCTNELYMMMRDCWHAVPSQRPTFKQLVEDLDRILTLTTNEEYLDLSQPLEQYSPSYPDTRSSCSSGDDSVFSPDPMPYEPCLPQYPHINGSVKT
Experiment: flow cytometry, Expi293 cells overexpressing human FGFR2b
Documented EC50 across a set of binders
I only need the number, in nM, no unit after it.

Inquiry: Tell me EC50 reported for BGAm1823 (antibody, V domains shown) VH: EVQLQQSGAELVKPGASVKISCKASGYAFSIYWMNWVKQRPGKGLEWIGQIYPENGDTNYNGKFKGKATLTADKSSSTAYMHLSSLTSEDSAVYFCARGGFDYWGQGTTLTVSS VL: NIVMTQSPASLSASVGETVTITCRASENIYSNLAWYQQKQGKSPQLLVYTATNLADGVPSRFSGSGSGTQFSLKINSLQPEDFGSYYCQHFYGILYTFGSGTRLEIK
Reply text: 2.12

Further cases:
Inquiry: Tell me EC50 reported for BGAh9239 (antibody, human IgG1, kappa, V domains shown) VH: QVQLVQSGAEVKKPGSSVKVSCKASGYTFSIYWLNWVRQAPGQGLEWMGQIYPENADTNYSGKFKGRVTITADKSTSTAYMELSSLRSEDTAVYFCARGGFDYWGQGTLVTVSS VL: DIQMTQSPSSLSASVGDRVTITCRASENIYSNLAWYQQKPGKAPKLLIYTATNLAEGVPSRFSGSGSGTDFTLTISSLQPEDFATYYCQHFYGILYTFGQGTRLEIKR
Reply text: 2.4

Inquiry: Tell me EC50 reported for BGAh9179 (antibody, human IgG1, kappa, V domains shown) VH: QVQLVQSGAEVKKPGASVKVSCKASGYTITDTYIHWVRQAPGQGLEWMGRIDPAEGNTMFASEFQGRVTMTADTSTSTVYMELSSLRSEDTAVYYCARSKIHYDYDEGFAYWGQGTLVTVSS VL: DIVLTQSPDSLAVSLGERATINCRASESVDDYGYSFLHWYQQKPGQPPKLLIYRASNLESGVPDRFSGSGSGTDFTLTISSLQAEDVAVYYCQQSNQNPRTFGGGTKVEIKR
Reply text: 3.29

Inquiry: Tell me EC50 reported for BGAm1371 (antibody, V domains shown) VH: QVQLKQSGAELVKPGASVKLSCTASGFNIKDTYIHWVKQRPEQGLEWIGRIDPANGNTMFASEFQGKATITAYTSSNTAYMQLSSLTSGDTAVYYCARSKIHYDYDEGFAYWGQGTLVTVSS VL: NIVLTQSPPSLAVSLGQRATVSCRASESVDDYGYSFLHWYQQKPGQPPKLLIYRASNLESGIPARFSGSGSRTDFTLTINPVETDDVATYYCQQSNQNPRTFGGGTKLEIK
Reply text: 1.5
